Source listed as patent US12435080B2.

- measurement target: sGC enzyme (Homo sapiens, UniProt Q02108+Q02153)
- Construct: incorporated into these cells detect cGMP formed by the compounds stimulating the sGC enzyme; host or cells: HEK293 cells stably expressing GloSensor 40F cGMP biosensor
- Sequence (Q02153 1-619): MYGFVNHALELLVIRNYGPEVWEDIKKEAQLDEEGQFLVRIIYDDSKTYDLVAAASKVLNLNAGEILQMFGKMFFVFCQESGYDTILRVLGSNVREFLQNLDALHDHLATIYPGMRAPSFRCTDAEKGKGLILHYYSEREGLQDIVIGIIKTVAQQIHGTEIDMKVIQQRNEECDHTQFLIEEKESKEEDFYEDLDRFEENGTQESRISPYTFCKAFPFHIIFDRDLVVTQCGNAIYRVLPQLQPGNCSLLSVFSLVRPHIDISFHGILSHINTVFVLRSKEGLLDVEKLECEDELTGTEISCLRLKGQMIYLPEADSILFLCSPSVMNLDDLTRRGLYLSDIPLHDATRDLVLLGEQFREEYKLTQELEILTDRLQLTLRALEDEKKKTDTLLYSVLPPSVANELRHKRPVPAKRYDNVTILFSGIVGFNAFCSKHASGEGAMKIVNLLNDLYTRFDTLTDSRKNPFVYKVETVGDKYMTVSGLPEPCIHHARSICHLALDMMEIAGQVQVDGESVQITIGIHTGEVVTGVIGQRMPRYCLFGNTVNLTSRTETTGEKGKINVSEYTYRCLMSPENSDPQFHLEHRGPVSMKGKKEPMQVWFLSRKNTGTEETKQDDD
- Sequence (Q02108 1-690): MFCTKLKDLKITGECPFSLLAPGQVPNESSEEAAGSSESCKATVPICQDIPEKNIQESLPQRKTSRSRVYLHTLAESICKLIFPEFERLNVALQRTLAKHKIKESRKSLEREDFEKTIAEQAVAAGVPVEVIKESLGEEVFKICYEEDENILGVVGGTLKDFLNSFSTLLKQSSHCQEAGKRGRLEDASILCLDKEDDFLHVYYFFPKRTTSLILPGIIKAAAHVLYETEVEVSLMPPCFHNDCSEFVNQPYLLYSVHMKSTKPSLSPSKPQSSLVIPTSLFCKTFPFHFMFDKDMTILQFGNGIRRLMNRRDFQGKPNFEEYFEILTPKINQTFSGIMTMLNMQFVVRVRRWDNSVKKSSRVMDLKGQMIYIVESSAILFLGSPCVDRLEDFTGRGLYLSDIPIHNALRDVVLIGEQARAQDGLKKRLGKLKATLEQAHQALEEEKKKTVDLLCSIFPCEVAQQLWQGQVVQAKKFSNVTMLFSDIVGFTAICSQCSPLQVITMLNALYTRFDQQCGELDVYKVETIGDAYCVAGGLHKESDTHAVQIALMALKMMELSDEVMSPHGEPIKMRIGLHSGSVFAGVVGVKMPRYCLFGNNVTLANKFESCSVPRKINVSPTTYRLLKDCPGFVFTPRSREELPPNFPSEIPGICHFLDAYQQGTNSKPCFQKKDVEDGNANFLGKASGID
- protocol notes: cGMP GloSensor cell-based assay, 384-well format
- particulars: HEK293 cells expressing GloSensor 40F cGMP; 10 μM DETA-NONOate; normalized to 30 μM Compound Y; compounds in Table IA; read-out: Glo-sensor AbsEC50
metric: EC50

Please indicate EC50 recorded for CC1(c2n[nH]c(-c3nn(Cc4ccccc4F)c4ncccc34)n2)CC1
< 100 nM

Please indicate EC50 recorded for N#Cc1n[nH]c(-c2nn(Cc3ccccc3F)c3ncccc23)n1
< 100 nM

Please indicate EC50 recorded for Fc1ccccc1Cn1nc(-c2nc(C3CC3)n[nH]2)c2cccnc21
< 100 nM

Please indicate EC50 recorded for Fc1ccc(F)c(Cc2nn(-c3nc(C(F)(F)F)n[nH]3)c3cccnc23)c1
< 100 nM

Please indicate EC50 recorded for Fc1ccc(F)c(Cn2nc(-c3nc(C(F)(F)F)n[nH]3)c3cccnc32)c1
< 100 nM

Please indicate EC50 recorded for NC(=O)c1n[nH]c(-c2nn(Cc3ccccc3F)c3ncccc23)n1
100 to 1000 nM

Please indicate EC50 recorded for Fc1ccccc1Cn1nc(-c2nc(C(F)(F)F)n[nH]2)c2nccnc21
> 1000 nM

Please indicate EC50 recorded for CC(C)(O)c1n[nH]c(-c2nn(Cc3ccccc3F)c3ncccc23)n1
100 to 1000 nM

Please indicate EC50 recorded for Fc1cccc(Cc2nn(-c3nc(C(F)F)n[nH]3)c3cccnc23)c1
100 to 1000 nM
